Biological target: T1, Biotinylated human TNFRI (human, UniProt P19438 30-211, limits assumed, biotinylated (approx 1 biotin per molecule))
T1 sequence (looked up): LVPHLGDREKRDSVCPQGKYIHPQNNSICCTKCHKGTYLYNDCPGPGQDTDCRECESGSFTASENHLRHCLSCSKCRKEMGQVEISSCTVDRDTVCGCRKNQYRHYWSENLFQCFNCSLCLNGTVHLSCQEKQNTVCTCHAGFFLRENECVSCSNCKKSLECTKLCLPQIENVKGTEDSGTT
Experiment: SPR (Biacore), biotinylated human TNFRI on streptavidin chip, dAb injected; KD from mean kd/ka
Task for the reader: assign each of the following binders its reported Kd.
Give bare numbers, in nM.

Input: Name the recorded Kd of the binder listed here: TAR2-10-27 Ser120cys 30K MAL PEG (other, 30K MAL-PEG on the C-terminal Cys (Ser120cys), TAR2-10-27 cys; For the limits of the entry see m36; also called TAR210-27 30K MAL PEG) VH: ASTEVQLLESGGGLVQPGGSLRLSCAASGFTFEWYWMGWVRQAPGKGLEWVSAISGSGGSTYYADSVKGRFTISRDNSKNTLYLQMNSLRAEDAAVYYCAKVKLGGGPNFGYRGQGTLVTVSC
Output: 92.2

Input: Look up and report measured Kd for this entry: TAR2-10-27 Ser120cys blocked (other, C-terminal Cys (Ser120cys) blocked with N-ethylmaleimide, TAR2-10-27 cys; the entry already carries Ser120cys) VH: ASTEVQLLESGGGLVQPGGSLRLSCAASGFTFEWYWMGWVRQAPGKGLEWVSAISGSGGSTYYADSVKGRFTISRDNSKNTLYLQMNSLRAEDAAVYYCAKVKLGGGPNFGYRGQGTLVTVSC
Output: 10.3

Input: Could you please provide reported Kd for TAR210-27 20K MAL PEG (other, 20K MAL-PEG on the C-terminal Cys (Ser120cys), For the limits of the entry see m36) VH: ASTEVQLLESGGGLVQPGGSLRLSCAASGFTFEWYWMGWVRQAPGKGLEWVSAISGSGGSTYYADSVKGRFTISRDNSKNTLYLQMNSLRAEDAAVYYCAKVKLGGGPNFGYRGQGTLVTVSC ? Thanks!
Output: 150

Further cases:
Input: Return value of Kd for input TAR210-27 2 × 10K MAL PEG (other, 2 × 10K MAL-PEG on the C-terminal Cys (Ser120cys), For the limits of the entry see m36) VH: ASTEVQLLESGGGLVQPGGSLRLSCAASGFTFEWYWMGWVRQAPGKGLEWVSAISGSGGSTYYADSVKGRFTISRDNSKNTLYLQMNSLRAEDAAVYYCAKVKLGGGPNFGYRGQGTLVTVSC , no commentary.
Output: 79.5
